biological target: recombinant human GAA (rhGAA, Myozyme) (Homo sapiens, UniProt P10253); construct: purchased Genzyme; assay: competitive FluoPol-ABPP assay on rhGAA with TAMRA-ABP II; assay type: biochemical; conditions: library screen, 5 μM inhibitor, 25 nM ABP II
property.measured: GAA FP% (residual FP-signal) (%)

Guide cases for GAA FP% (residual FP-signal), answers given:
CCCCCCCCOCCCCCN1C[C@H](O)[C@@H](O)[C@H](O)[C@H]1CO    13
OC[C@@H]1[C@@H](O)[C@H](O)[C@@H](O)CN1CCCCCCOCC12CC3CC(CC(C3)C1)C2    1.8
OC[C@@H]1[C@@H](O)[C@H](O)[C@@H](O)CN1CCCCCOCc1ccc(-c2cncnc2)cc1    1.0

P = OC[C@@H]1[C@@H](O)[C@H](O)[C@@H](O)CN1CCCCCOCc1ccc(-c2ccc(Cl)cc2)cc1
Q = CCCCCCCCCN1C[C@H](O)[C@@H](O)[C@H](O)[C@H]1CO
Query :: Smaller GAA FP% (residual FP-signal) value? Options are P and Q Use the label to indicate which entry you chose.
Result :: P

I = OC[C@@H]1[C@@H](O)[C@H](O)[C@@H](O)CN1CCCCCOCc1ccc(-c2ccc3c(c2)OCCCO3)cc1
II = OC[C@@H]1[C@@H](O)[C@H](O)[C@@H](O)CN1CCCCCOCc1ccc(-c2ccccc2)cc1C(F)(F)F
Query :: Smaller GAA FP% (residual FP-signal) value? Options are I and II Use the label to indicate which entry you chose.
Result :: I

---

biological target: recombinant human GAA (rhGAA, Myozyme) (Homo sapiens, UniProt P10253); construct: purchased Genzyme; assay: competitive FluoPol-ABPP assay on rhGAA with TAMRA-ABP II; type: biochemical; conditions: library screen, 5 μM inhibitor, 25 nM ABP II;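 also: fluorescence polarization read at 540 nm excitation and 590 nm emission, background-corrected, normalized to uninhibited probe labelling as 100% and excess cyclosulfate as 0%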
property.measured: GAA FP% (residual FP-signal) (%)

O=C(CCCCCN1C[C@H](O)[C@@H](O)[C@H](O)[C@H]1CO)NC12CC3CC(CC(C3)C1)C2    24
CC(C)=CCC/C(C)=C/CC/C(C)=C/CN1C[C@H](O)[C@@H](O)[C@H](O)[C@H]1CO    0.9
OC[C@@H]1[C@@H](O)[C@H](O)[C@@H](O)CN1CCCCCOCc1ccc(-c2ccccc2)cc1F    4.8
CC(C)=CCC/C(C)=C/CC/C(C)=C/COCCCCCN1C[C@H](O)[C@@H](O)[C@H](O)[C@H]1CO    6.8
OC[C@@H]1[C@@H](O)[C@H](O)[C@@H](O)CN1CCCCCOCc1ccc(-c2ccccc2)c(F)c1    3.6
OC[C@@H]1[C@@H](O)[C@H](O)[C@@H](O)CN1CCCCCOCc1ccc(-c2cccnc2)cc1    0.6
CCCCCCCN1C[C@H](O)[C@@H](O)[C@H](O)[C@H]1CO    35
OC[C@@H]1[C@@H](O)[C@H](O)[C@@H](O)CN1CCCCCOCc1ccc(-c2ccc(F)cc2)cc1    0.9

A = CC(C)CCCC(C)C1CCC2C3CC=C4CC(OCCCCCN5CC(O)C(O)C(O)C5CO)CCC4(C)C3CCC12C (stereo not shown)
B = OC[C@@H]1[C@@H](O)[C@H](O)[C@@H](O)CN1CCCCCOCCC12CC3CC(CC(C3)C1)C2
C = CC(C)(C)COCCCCCN1C[C@H](O)[C@@H](O)[C@H](O)[C@@H]1CO
Query :: Hey, quick one: sort these by GAA FP% (residual FP-signal), low to high? Output spec: a listing of the labels in the requested order.
Result :: B, A, C
(B: 4.1%, A: 6.5%, C: 23%)

---

molecular target: human recombinant lysosomal α-glucosidase GAA (Myozyme) (Homo sapiens, UniProt P10253); construct: purchased Genzyme; assay: fluorogenic substrate (4MU-α-D-glucopyranoside) assay on rhGAA; type: biochemical; conditions: Table S2; 4-MU alpha glucoside substrate; read-out: IC50 on rhGAA
property.measured: IC50 (nM)

CC(C)(C)COCCCCCN1C[C@H](O)[C@@H](O)[C@H](O)[C@@H]1CO    640
C[C@H](OCCCCCN1C[C@H](O)[C@@H](O)[C@H](O)[C@H]1CO)c1ccc(-c2ccccc2)cc1    42
Cc1cccc(-c2ccc(COCCCCCN3C[C@H](O)[C@@H](O)[C@H](O)[C@H]3CO)cc2)c1    20
CCCCCCCCCN1C[C@H](O)[C@@H](O)[C@H](O)[C@H]1CO    320

I = CCCCCCOCCCCCN1C[C@H](O)[C@@H](O)[C@H](O)[C@H]1CO
II = CC(C)CCCC(C)C1CCC2C3CC=C4CC(OCCCCCN5CC(O)C(O)C(O)C5CO)CCC4(C)C3CCC12C (stereo not shown)
III = N#Cc1ccc(-c2ccc(COCCCCCN3C[C@H](O)[C@@H](O)[C@H](O)[C@H]3CO)cc2)cc1
Query :: Given 3 compounds, produce a descending ranking by IC50. Output spec: a listing of the labels in the requested order.
Result :: I, II, III
(I: 310 nM, II: 170 nM, III: 37 nM)

---

molecular target: recombinant human GAA (rhGAA, Myozyme) (Homo sapiens); construct: purchased Genzyme; assay: competitive FluoPol-ABPP assay on rhGAA with TAMRA-ABP II; format: biochemical; details: library screen, 5 μM inhibitor, 25 nM ABP II
property.measured: GAA FP% (residual FP-signal) (%)

Guide cases for GAA FP% (residual FP-signal), answers given:
CCCCCN1C[C@H](O)[C@@H](O)[C@H](O)[C@H]1CO [#ID 297]    12
OC[C@@H]1[C@@H](O)[C@H](O)[C@@H](O)CN1CCCCCOCc1ccc(-c2cccc(F)c2)cc1 [#ID 312]    0.9
CCCCOCCOCCN1C[C@H](O)[C@@H](O)[C@H](O)[C@H]1CO [#ID 200]    46
Cc1cccc(-c2ccc(COCCCCCN3C[C@H](O)[C@@H](O)[C@H](O)[C@H]3CO)cc2)c1 [#ID 302]    0.1
OC[C@@H]1[C@H](O)[C@H](O)[C@@H](O)CN1CCCCCOCC12CC3CC(CC(C3)C1)C2 [#ID 150]    15

a = OC[C@@H]1[C@H](O)[C@@H](O)[C@H](O)CN1CCOCc1ccccc1 [#ID 47]
b = OC[C@@H]1[C@@H](O)[C@H](O)[C@@H](O)CN1CCCCCOCc1ccccc1-c1ccccc1 [#ID 339]
c = CC(C)=CCOCCCCCN1C[C@H](O)[C@@H](O)[C@H](O)[C@H]1CO [#ID 100]
d = OC[C@@H]1[C@@H](O)[C@H](O)[C@@H](O)CN1CCCCCOCc1ccc(-c2ccc(Br)cc2)cc1 [#ID 348]
e = OC[C@@H]1[C@@H](O)[C@H](O)[C@@H](O)CN1CCCCCOCc1ccc(-c2ccnc(F)c2)cc1 [#ID 334]
Query :: Given 5 compounds, produce a descending ranking by GAA FP% (residual FP-signal). Output spec: a listing of the labels in the requested order.
Result :: a, c, d, e, b
(a: 34%, c: 19%, d: 3.1%, e: 1.5%, b: 0.9%)

1 = OC[C@@H]1[C@H](O)[C@@H](O)[C@H](O)CN1CCCCCOCc1ccc(-c2ccccc2)cc1 [#ID 122]
2 = Cc1ccccc1-c1ccc(COCCCCCN2C[C@H](O)[C@@H](O)[C@H](O)[C@H]2CO)cc1 [#ID 326]
Query :: Compare 1 and 2 by numeric GAA FP% (residual FP-signal) and name the larger one. Use the label to indicate which entry you chose.
Result :: 1

I = OC[C@@H]1[C@@H](O)[C@H](O)[C@@H](O)CN1CCCCCOCc1ccc(-c2ccc(F)nc2)cc1 [#ID 322]
II = OC[C@H]1NC[C@H](O)[C@@H](O)[C@H]1O [#ID 154]
Query :: Compare I and II by numeric GAA FP% (residual FP-signal) and name the larger one. Use the label to indicate which entry you chose.
Result :: II
(II: 2.4%, I: 0.8%)
